Each entry below lists one item and its recorded VEGFR2 MCF7 % Inhibition value.
assay.system: VEGFR-2 (Homo sapiens)
Sequence (P35968 20-1356): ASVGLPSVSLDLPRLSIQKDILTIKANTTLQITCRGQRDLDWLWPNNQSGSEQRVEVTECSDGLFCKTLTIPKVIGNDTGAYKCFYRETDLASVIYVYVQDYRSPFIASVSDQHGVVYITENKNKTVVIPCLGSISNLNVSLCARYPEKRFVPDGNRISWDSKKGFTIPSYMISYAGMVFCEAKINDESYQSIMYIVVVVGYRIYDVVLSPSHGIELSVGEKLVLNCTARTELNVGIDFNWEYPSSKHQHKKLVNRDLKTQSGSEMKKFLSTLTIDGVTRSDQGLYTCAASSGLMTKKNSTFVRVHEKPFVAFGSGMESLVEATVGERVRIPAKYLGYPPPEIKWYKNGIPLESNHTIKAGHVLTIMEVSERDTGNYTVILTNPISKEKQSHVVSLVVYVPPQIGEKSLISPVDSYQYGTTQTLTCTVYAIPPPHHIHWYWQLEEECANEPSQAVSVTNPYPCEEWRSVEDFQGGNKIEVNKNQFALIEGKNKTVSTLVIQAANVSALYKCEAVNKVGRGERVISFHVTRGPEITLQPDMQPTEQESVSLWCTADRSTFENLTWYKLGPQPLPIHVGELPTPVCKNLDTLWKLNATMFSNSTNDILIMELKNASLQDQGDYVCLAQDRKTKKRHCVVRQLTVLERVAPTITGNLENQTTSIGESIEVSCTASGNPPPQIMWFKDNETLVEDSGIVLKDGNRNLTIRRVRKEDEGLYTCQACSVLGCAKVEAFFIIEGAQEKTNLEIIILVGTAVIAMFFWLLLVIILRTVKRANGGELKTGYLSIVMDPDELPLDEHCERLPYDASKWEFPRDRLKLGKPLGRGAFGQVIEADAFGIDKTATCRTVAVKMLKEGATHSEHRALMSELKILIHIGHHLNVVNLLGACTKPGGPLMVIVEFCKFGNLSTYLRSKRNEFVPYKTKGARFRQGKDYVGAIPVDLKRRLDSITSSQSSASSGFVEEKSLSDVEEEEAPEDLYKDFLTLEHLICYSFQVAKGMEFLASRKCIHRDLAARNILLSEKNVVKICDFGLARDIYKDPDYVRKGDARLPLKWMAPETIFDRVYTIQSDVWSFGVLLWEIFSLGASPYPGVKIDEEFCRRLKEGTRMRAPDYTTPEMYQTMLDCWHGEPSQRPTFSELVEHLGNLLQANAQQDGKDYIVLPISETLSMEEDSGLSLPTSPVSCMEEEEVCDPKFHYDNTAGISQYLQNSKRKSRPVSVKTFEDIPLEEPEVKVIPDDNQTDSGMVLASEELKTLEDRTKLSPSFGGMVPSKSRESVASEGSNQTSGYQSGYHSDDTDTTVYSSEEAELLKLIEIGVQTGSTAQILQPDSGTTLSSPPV
assay.summary: VEGFR-2 Western blot in MCF7
Format: cell-based
assay.conditions: Western blot at MTT-IC50
Give the value in % but do not write % after it.

{"columns": ["molecule", "VEGFR2 MCF7 % Inhibition (%)"],
 "data": [
  ["COc1cc(/C=C2\\CN(C(=O)c3ccccc3OC(C)=O)C/C(=C\\c3cc(OC)c(OC)c(OC)c3)C2=O)cc(OC)c1OC [Compound 5h]", 45.4],
  ["COc1ccc(/C=C2\\CN(C(=O)c3cc(Cl)ccc3OC(C)=O)C/C(=C\\c3ccc(OC)cc3)C2=O)cc1 [Compound 5m]", 47.2]
]}

Record COc1cc(/C=C2\CN(C(=O)c3cc(Cl)ccc3OC(C)=O)C/C(=C\c3cc(OC)c(OC)c(OC)c3)C2=O)cc(OC)c1OC [Compound 5o] , field VEGFR2 MCF7 % Inhibition: 63.0

====

This listing pairs compounds with measured SI = CC50/IC50.
Test system: SARS-CoV-2 (hCoV-19/Egypt/NRC-03/2020)
assay.conditions: SARS-CoV-2 / VERO-E6

Worked set:
{"columns": ["smiles.record", "SI = CC50/IC50"],
 "data": [
  ["CC(=O)Oc1ccccc1C(=O)N1C/C(=C\\c2ccc(Cl)cc2)C(=O)/C(=C/c2ccc(Cl)cc2)C1", 1.7],
  ["COc1cc(/C=C2\\CN(C(=O)c3ccccc3OC(C)=O)C/C(=C\\c3cc(OC)c(OC)c(OC)c3)C2=O)cc(OC)c1OC", 35.0]
]}

With those in mind, consider the next compound.
Known value: SARS-CoV-2 (hCoV-19/Egypt/NRC-03/2020) SI = CC50/IC50 of the compound CC(=O)Oc1ccccc1C(=O)N1C/C(=C\c2ccc(Br)cc2)C(=O)/C(=C/c2ccc(Br)cc2)C1 equals 54.7

====

assay.system: UniProt:P35968
assay.summary: VEGFR-2 Western blot in MCF7
Type: cell-based
assay.conditions: Western blot at MTT-IC50, control RQ 3.725
Each record here notes measured VEGFR2 MCF7 RQ (relative quantification).
# output: bare number, no unit

// worked examples, VEGFR2 MCF7 RQ (relative quantification) included
{"columns": ["smiles.record", "value.kind", "result.value"],
 "data": [
  ["COc1ccc(/C=C2\\CN(C(=O)c3ccccc3OC(C)=O)C/C(=C\\c3ccc(OC)cc3)C2=O)cc1", "VEGFR2 MCF7 RQ (relative quantification)", 1.56],
  ["CC(=O)Oc1ccccc1C(=O)N1C/C(=C\\c2ccc(Cl)cc2)C(=O)/C(=C/c2ccc(Cl)cc2)C1", "VEGFR2 MCF7 RQ (relative quantification)", 1.51],
  ["CC(=O)Oc1ccccc1C(=O)N1C/C(=C\\c2ccccc2)C(=O)/C(=C/c2ccccc2)C1", "VEGFR2 MCF7 RQ (relative quantification)", 1.32]
]}

Field: next compound
// VEGFR2 MCF7 RQ (relative quantification) value for CC(=O)Oc1ccc(Cl)cc1C(=O)N1C/C(=C\c2cccs2)C(=O)/C(=C/c2cccs2)C1 : 2.209

====

pIC50 values for the compounds below.
Test system: MCF7 (breast) cancer cell line
assay.summary: MTT antiproliferative assay, MCF7
Type: cell-based
assay.conditions: Homo sapiens, MCF7, 72 h, read-out: IC50 ± SE, MCF7
Just so you know, pIC50 here is -log10 of the concentration in molar units; reply with that number alone.

{"columns": ["compound", "pIC50"],
 "data": [
  ["COc1cc(/C=C2\\CN(C(=O)c3cc(Cl)ccc3OC(C)=O)C/C(=C\\c3cc(OC)c(OC)c(OC)c3)C2=O)cc(OC)c1OC [Compound 5o]", 5.58]
]}

Entry CC(=O)Oc1ccccc1C(=O)N1C/C(=C\c2cccs2)C(=O)/C(=C/c2cccs2)C1 [Compound 5i] , MCF7 (breast) cancer cell line data, pIC50 value: 5.25

Record for COc1cc(/C=C2\CN(C(=O)c3ccccc3OC(C)=O)C/C(=C\c3cc(OC)c(OC)c(OC)c3)C2=O)cc(OC)c1OC [Compound 5h] under target or system MCF7 (breast) cancer cell line: pIC50 reported as 5.40

Fill in: MCF7 (breast) cancer cell line pIC50 for CC(=O)Oc1ccccc1C(=O)N1C/C(=C\c2ccccc2)C(=O)/C(=C/c2ccccc2)C1 [Compound 5a] = 5.32

Here COc1ccc(/C=C2\CN(C(=O)c3ccccc3OC(C)=O)C/C(=C\c3ccc(OC)cc3)C2=O)cc1 [Compound 5f] was tested on MCF7 (breast) cancer cell line, and its pIC50 came to 5.27

GET /values?item= COc1ccc(/C=C2\CN(C(=O)c3cc(Cl)ccc3OC(C)=O)C/C(=C\c3ccc(OC)cc3)C2=O)cc1 [Compound 5m] &system= MCF7 (breast) cancer cell line returns pIC50: 5.30

Summary: CC(=O)Oc1ccc(Cl)cc1C(=O)N1C/C(=C\c2ccccc2)C(=O)/C(=C/c2ccccc2)C1 [Compound 5j] , MCF7 (breast) cancer cell line, pIC50 = 5.35
